system: Mast/stem cell growth factor receptor Kit (Homo sapiens), P10721 [T670I]; conditions: at 0.1 µM
Sequence (P10721 whole entry T670I): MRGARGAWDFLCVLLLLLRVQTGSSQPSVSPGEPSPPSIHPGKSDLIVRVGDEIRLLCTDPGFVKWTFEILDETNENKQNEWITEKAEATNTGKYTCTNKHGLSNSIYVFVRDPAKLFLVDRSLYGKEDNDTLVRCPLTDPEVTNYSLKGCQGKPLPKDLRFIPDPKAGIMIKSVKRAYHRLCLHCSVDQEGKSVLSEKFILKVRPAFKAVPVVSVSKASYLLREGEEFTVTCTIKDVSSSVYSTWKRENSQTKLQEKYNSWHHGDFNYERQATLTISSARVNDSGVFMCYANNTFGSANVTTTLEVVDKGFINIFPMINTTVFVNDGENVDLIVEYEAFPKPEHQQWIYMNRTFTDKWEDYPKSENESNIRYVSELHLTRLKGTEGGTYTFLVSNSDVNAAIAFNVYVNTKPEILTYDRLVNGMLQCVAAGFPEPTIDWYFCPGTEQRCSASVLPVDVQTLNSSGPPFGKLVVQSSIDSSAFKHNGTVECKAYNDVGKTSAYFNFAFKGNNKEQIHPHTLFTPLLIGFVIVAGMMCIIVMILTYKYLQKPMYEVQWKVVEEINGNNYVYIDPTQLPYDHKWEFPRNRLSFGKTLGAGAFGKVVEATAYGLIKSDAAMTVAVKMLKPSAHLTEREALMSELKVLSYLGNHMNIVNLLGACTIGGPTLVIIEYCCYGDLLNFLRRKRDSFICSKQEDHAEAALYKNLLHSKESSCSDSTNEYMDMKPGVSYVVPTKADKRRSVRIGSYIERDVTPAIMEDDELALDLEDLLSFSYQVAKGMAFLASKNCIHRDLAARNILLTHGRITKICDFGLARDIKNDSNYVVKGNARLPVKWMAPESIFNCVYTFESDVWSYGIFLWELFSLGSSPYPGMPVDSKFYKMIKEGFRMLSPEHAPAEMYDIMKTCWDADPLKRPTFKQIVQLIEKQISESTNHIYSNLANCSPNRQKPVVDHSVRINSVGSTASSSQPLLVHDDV
READOUT: inhibition (%)
Write the number in % without appending the unit.

Please review the following examples before continuing.
query_smiles=c1ccc(-c2nc3n(c2-c2ccc4c(c2)OCO4)CCC3)nc1 tested_system="Mast/stem cell growth factor receptor Kit (Homo sapiens), P10721 [T670I]" test_result=2.34
query_smiles=CCn1cc(-c2ccnc3[nH]ccc23)c(-c2cccc(NC(=O)Nc3ccc(OCc4ccccc4)cc3)c2)n1 tested_system="Mast/stem cell growth factor receptor Kit (Homo sapiens), P10721 [T670I]" test_result=-1.41
query_smiles=CCn1c(-c2nonc2N)nc2cnc(Oc3cccc(NC(=O)c4ccc(N(C)C)cc4)c3)cc21 tested_system="Mast/stem cell growth factor receptor Kit (Homo sapiens), P10721 [T670I]" test_result=0.35
query_smiles=Cc1ccc(O)cc1Nc1ccnc2cc(-c3ccccn3)ccc12 tested_system="Mast/stem cell growth factor receptor Kit (Homo sapiens), P10721 [T670I]" test_result=4.94
query_smiles=COc1cc(/C=N/Nc2ncnc3[nH]ncc23)ccc1O tested_system="Mast/stem cell growth factor receptor Kit (Homo sapiens), P10721 [T670I]" test_result=0.9

Look up inhibition for this compound: Fc1ccc(-c2nn3ccccc3c2-c2ccncc2)cc1
-0.12
